# target_of_assay: HDAC2 (Homo sapiens, UniProt Q92769)
# Sequence (Q92769 whole entry): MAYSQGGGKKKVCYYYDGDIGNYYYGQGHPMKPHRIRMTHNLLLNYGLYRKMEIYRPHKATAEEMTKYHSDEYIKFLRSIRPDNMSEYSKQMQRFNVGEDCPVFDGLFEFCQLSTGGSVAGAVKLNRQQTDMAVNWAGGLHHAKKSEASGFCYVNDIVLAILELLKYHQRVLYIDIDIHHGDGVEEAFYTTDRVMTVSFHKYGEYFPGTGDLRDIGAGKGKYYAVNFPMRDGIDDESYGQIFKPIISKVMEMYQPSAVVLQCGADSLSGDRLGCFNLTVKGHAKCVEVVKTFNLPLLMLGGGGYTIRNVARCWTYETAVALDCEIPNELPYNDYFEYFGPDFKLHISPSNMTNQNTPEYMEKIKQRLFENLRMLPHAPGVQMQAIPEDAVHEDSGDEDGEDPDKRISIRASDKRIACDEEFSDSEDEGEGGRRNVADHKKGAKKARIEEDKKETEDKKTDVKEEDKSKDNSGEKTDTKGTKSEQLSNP
# procedure_summary: HDACs activity assay, HDAC2
# Assay type: biochemical
measure: IC50 (µM)
Note: unit µM is implicit; provide only the numeric part.

Prompt: Fill blank: measured IC50 of the compound CN1c2ccccc2C(=O)N2[C@H](C(=O)Nc3ccc(C(=O)Nc4ccccc4N)cc3)Cc3c([nH]c4ccccc34)[C@@H]12 [Compound 30a] is ____.
Response: 10

====

Catalogue of half-life at 1 μmol/L values
# procedure_summary: In vitro metabolic stability in mice liver microsomes
# Type: in vitro ADME
# experimental_conditions: female, ICR, mouse, liver microsomes, pH 7.4
Please append the unit to your numeric answer.

| compound | measure | assay_result |
| --- | --- | --- |
| CN1c2ccccc2C(=O)N2[C@H](C(=O)Nc3ccc(C(=O)Nc4ccccc4N)cc3)Cc3c([nH]c4ccccc34)[C@@H]12 [Compound 30a] | half-life at 1 μmol/L | 35 min |

Prompt: Fill blank: measured half-life at 1 μmol/L of the compound CN1c2ccccc2C(=O)N2[C@H](C(=O)Nc3ccc(/C=C/C(=O)NO)cc3)Cc3c([nH]c4ccccc34)[C@@H]12 [Compound 25a] is ____.
Response: 9.86 min
